Molecular target: T1, corticotropin releasing factor 2 receptor
T1 sequence (Q13324 whole entry, species assumed, looked up): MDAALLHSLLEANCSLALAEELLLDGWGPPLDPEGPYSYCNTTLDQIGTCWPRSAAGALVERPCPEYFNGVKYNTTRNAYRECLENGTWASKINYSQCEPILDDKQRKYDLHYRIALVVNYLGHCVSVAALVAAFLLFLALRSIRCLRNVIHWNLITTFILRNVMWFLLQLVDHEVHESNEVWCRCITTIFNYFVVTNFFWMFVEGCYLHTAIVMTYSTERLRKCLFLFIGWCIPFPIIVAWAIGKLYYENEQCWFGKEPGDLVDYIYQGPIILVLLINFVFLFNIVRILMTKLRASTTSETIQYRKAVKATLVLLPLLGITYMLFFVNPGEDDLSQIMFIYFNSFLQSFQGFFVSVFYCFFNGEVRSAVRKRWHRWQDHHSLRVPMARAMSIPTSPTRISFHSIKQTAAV
Experiment: cell-based or functional assay
Ends that are not written are not given here.
property label: CRF2R Emax % (%)

> print(dat)
                                      binder  value.measured
 1  ZGPPISIDLPFQLLRKVIEIEKQEKEKQQAANNAHLLAHI (C-terminal amide) [SEQ ID NO 277]             100
 2  ZGPPISIDVPYHLLRKVIEIEKQEKEKQQAANNARLLDTI (C-terminal amide) [SEQ ID NO 376]             100
 3  PSLSIDLPLLLLRTLLELEKTQSQRERAEQNARIFARV-NH2 [SEQ ID NO 333]            96.9
 4  ZGPPISIDLPFQLLRLLIEIEKQEKEKQQAANNALLLATI (C-terminal amide) [SEQ ID NO 360]              93
 5  IVLSLDVPIHLLQILLEQARARAAREQATTNARILARV-NH2 [SEQ ID NO 371]              97
 6  ZGPPISIDLPFQLLRKVIEIEKQEKEKQQAANNAQLLAQI (C-terminal amide) [SEQ ID NO 276]             100
 7  DNPSLSIDLPLLLLRTLLELEKTQSQRERAEQNAHIFAHV-NH2 [SEQ ID NO 328]            95.7
 8  ZGPPISIDLPFFLLRKMIEIEKQEKEKQQAANNALLLATI (C-terminal amide) [SEQ ID NO 319]              95
 9  ZGPPISIDLPAALLRKMIEIEKQEKEKQQAANNRLLLDTI (not fully specified; C-terminal amide) [SEQ ID NO 303]             100
10  ZGPPISIDLPIILLRKMIEIEKQEKEKQQAANNARLLARI (C-terminal amide) [SEQ ID NO 290]             100
11  ZGPPISIDLPFYLLRKMIEIEKQEKEKQQAANNALLLATI (C-terminal amide) [SEQ ID NO 231]             100
12  ZGPPISIDVPLQLLRKVIEIEKQEKEKQQAANNARLLDTI (C-terminal amide) [SEQ ID NO 380]             100
